Tested on: human liver (C3A) cells
quantity_measured: Cytotoxicity LC50

{"molecule": "CC(=O)OCC1=CCc2c(cc(O)c3c(=O)cc(C)oc23)OC1 [Compound 2]", "quantity_measured": "Cytotoxicity LC50", "obs_value": "> 200 µg/mL"}
